# Tested on: HCC-15
# measurementDescription: relative viability (nuclei count vs DMSO), 5 days (fraction); higher = more cells survive
# protocolConditions: first compound 2.53 µM
reportedEndpoint: relative viability

>  <compound>
O=c1[nH]c2ccccc2n1C1CCN(CCCC(c2ccc(F)cc2)c2ccc(F)cc2)CC1 [Pimozide] + CS(=O)(=O)N1CCN(Cc2cc3nc(-c4cccc5[nH]ncc45)nc(N4CCOCC4)c3s2)CC1 [Pictilisib] (partner 1 µM)

>  <systemTested>
HCC-15

>  <resultNumber>
0.709

$$$$
>  <compound>
Cc1cnc(-c2cnc(NCCNc3ccc(C#N)cn3)nc2-c2ccc(Cl)cc2Cl)[nH]1 + CC(=O)Nc1cccc(-n2c(=O)n(C3CC3)c(=O)c3c(Nc4ccc(I)cc4F)n(C)c(=O)c(C)c32)c1 [Trametinib] (partner 0.02 µM)

>  <systemTested>
HCC-15

>  <resultNumber>
0.422

$$$$
>  <compound>
Cc1cnc(-c2cnc(NCCNc3ccc(C#N)cn3)nc2-c2ccc(Cl)cc2Cl)[nH]1 + NC(=O)Nc1cc(-c2cccc(F)c2)sc1C(=O)N[C@H]1CCCNC1 [AZD7762] (partner 0.2 µM)

>  <systemTested>
HCC-15

>  <resultNumber>
1.13

$$$$
>  <compound>
O=c1[nH]c2ccccc2n1C1CCN(CCCC(c2ccc(F)cc2)c2ccc(F)cc2)CC1 [Pimozide] + CC(=O)c1c(C)c2cnc(Nc3ccc(N4CCNCC4)cn3)nc2n(C2CCCC2)c1=O [Palbociclib] (partner 0.5 µM)

>  <systemTested>
HCC-15

>  <resultNumber>
0.652

$$$$

###

# Tested on: CAL-12T
# measurementDescription: relative viability (nuclei count vs DMSO), 5 days (fraction); higher = more cells survive
# protocolConditions: first compound 0.01581 µM
reportedEndpoint: relative viability

>  <compound>
Nc1ccn([C@@H]2O[C@H](CO)[C@@H](O)[C@@H]2O)c(=O)n1 [Cytarabine] + N=C(N)NC(=N)NCCc1ccccc1 [Phenformin] (partner 250 µM)

>  <systemTested>
CAL-12T

>  <resultNumber>
0.489

$$$$
>  <compound>
COc1cc2nccc(Oc3ccc(NC(=O)Nc4cc(C)on4)c(Cl)c3)c2cc1OC [Tivozanib] + O=C(CCCCCCC(=O)Nc1ccccc1)NO [Vorinostat] (partner 1 µM)

>  <systemTested>
CAL-12T

>  <resultNumber>
0.744

$$$$
>  <compound>
Nc1ccn([C@@H]2O[C@H](CO)[C@@H](O)[C@@H]2O)c(=O)n1 [Cytarabine] + COc1cc2c(Oc3ccc(NC(=O)C4(C(=O)Nc5ccc(F)cc5)CC4)cc3F)ccnc2cc1OCCCN1CCOCC1 [Foretinib] (partner 0.25 µM)

>  <systemTested>
CAL-12T

>  <resultNumber>
1.18

$$$$

###

# System: NCI-H1299
# measurementDescription: relative viability (nuclei count vs DMSO), 5 days (fraction); higher = more cells survive
# protocolConditions: first compound 5 µM

>  <compound>
O=C(O)CCCCC(CCSCc1ccccc1)SCc1ccccc1 (stereo not given) [CPI-613] + CC(C)C[C@H](NC(=O)[C@H](Cc1ccccc1)NC(=O)c1cnccn1)B(O)O [Bortezomib] (partner 0.002 µM)

>  <relative viability>
1.01

$$$$
>  <compound>
O=C(O)CCCCC(CCSCc1ccccc1)SCc1ccccc1 (stereo not given) [CPI-613] + C[C@@H](Oc1cc(-c2cnn(C3CCNCC3)c2)cnc1N)c1c(Cl)ccc(F)c1Cl [Crizotinib] (partner 1 µM)

>  <relative viability>
0.926

$$$$
>  <compound>
O=C(O)CCCCC(CCSCc1ccccc1)SCc1ccccc1 (stereo not given) [CPI-613] + COc1cc2c(Oc3ccc(NC(=O)C4(C(=O)Nc5ccc(F)cc5)CC4)cc3F)ccnc2cc1OCCCN1CCOCC1 [Foretinib] (partner 0.25 µM)

>  <relative viability>
1.03

$$$$
>  <compound>
O=C(O)CCCCC(CCSCc1ccccc1)SCc1ccccc1 (stereo not given) [CPI-613] + CC1(C)CCC(c2ccc(Cl)cc2)=C(CN2CCN(c3ccc(C(=O)NS(=O)(=O)c4ccc(N[C@H](CCN5CCOCC5)CSc5ccccc5)c(S(=O)(=O)C(F)(F)F)c4)cc3)CC2)C1 [Navitoclax] (partner 0.5 µM)

>  <relative viability>
1.05

$$$$
>  <compound>
O=C(O)CCCCC(CCSCc1ccccc1)SCc1ccccc1 (stereo not given) [CPI-613] + Cc1nc(NC(=O)N2CCC[C@H]2C(N)=O)sc1-c1ccnc(C(C)(C)C(F)(F)F)c1 [Alpelisib] (partner 2 µM)

>  <relative viability>
1.02

$$$$
